All values here come from ChEMBL document CHEMBL2150980.

# assayed target: Alpha-1A adrenergic receptor (Cavia porcellus)
# Sequence (whole entry): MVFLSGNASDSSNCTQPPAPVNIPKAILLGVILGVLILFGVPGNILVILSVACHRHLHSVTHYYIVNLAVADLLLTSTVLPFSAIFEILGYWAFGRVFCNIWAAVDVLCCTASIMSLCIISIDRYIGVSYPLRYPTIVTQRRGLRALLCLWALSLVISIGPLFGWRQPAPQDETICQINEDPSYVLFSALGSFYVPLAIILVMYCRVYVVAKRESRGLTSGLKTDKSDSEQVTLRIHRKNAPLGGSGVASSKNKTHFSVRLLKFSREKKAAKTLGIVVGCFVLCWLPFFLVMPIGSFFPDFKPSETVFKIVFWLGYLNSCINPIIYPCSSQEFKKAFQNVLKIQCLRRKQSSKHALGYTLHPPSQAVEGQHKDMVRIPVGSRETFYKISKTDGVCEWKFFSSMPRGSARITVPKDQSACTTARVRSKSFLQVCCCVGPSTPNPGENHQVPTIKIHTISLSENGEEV
# procedure summary: Inverse agonist activity at alpha1A adrenoceptor in guinea pig thoracic aorta assessed as inhibition of ca2+-induced IRT at 10 nM after 30 mins
# Type: functional, tissue-based
So I've got a bunch of molecules here, and I need their inhibition values.
Just the number in %, nothing appended.

Need inhibition of COc1cccc(OC)c1OCCNC[C@H]1COc2ccccc2O1.Cl , thanks.
84

Need inhibition of COc1cccc(OC)c1OCCNC[C@H]1COc2cccc(Cl)c2O1.Cl , thanks.
80

Need inhibition of COc1cccc(OC)c1OCCNC[C@H]1COc2cccc(OC)c2O1.Cl , thanks.
60

Need inhibition of COc1cccc(OC)c1OCCNC[C@H]1COc2cccc(F)c2O1.Cl , thanks.
100

Need inhibition of COc1cccc(OC)c1OCCNC[C@H]1COc2c(OC)cccc2O1.Cl , thanks.
79

Need inhibition of COc1cccc(OC)c1OCCNC[C@H]1COc2cccc(O)c2O1.Cl , thanks.
100

###

# assayed target: UniProt P15823
# Sequence (P15823 whole entry): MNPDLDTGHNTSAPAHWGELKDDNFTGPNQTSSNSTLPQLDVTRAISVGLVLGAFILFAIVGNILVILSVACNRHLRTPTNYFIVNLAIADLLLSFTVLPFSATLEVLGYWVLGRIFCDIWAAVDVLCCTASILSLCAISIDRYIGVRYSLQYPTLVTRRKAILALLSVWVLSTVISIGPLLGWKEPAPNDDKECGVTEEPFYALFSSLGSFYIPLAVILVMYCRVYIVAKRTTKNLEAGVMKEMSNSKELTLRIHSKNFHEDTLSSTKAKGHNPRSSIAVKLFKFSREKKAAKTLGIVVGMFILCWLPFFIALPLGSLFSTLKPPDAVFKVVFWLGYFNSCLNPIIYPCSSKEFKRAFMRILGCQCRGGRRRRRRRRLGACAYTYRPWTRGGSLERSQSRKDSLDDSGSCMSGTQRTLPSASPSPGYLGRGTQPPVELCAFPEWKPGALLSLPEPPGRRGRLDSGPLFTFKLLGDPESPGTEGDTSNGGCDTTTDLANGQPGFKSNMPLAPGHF
# procedure summary: Antagonist activity at alpha1B adrenoceptor in Sprague-Dawley rat spleen assessed as inhibition of phenylephrine-induced contractions after 30 mins
# Type: functional, tissue-based
# test context: read-out: pA2 (converted)
assay endpoint: Kb
Your reply should be a number followed by the unit it is expressed in.

Need Kb of COc1cccc(OC)c1OCCNC[C@H]1COc2c(OC)cccc2O1.Cl , thanks.
16.6 nM

Need Kb of COc1cccc(OC)c1OCCNC[C@H]1COc2cccc(Cl)c2O1.Cl , thanks.
8.91 nM

Need Kb of COc1cccc(OC)c1OCCNC[C@H]1COc2cccc(OC)c2O1.Cl , thanks.
0.263 nM

Need Kb of COc1cccc(OC)c1OCCNC[C@H]1COc2cccc(F)c2O1.Cl , thanks.
2.75 nM

Need Kb of COc1cccc(OC)c1OCCNC[C@H]1COc2cccc(O)c2O1.Cl , thanks.
15.8 nM

###

Target chain: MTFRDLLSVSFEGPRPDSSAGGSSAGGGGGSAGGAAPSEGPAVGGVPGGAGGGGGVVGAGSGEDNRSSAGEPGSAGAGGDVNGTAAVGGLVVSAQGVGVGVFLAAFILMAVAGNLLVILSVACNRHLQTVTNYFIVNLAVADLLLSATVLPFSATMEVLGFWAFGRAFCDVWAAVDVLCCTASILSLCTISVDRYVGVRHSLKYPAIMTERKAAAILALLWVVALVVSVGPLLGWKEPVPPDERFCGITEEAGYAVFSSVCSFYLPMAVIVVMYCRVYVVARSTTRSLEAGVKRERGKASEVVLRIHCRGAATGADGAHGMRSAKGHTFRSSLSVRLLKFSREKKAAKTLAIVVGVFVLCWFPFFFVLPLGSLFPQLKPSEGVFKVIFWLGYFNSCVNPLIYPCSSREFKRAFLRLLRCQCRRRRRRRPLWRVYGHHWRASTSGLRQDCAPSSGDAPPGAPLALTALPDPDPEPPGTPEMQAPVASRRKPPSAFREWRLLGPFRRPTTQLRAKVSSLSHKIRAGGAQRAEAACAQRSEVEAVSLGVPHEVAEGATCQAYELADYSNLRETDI
assay endpoint: pKi
The value called pKi is obtained by taking minus log10 of the concentration in mol/L.

Need pKi of COc1cccc(OC)c1OCCNC[C@H]1COc2cccc(F)c2O1.Cl , thanks.
9.31

Need pKi of COc1cccc(OC)c1OCCNC[C@@H]1COc2c(OC)cccc2O1 , thanks.
6.58

Need pKi of COc1cccc(OC)c1OCCNC[C@@H]1COc2cccc(Cl)c2O1 , thanks.
8.40

###

# assayed target: Alpha-1A adrenergic receptor (Rattus norvegicus, UniProt P43140)
# procedure summary: Antagonist activity at alpha1A adrenoceptor in Sprague-Dawley rat prostate assessed as inhibition of noradrenaline-induced contractions after 30 mins
# Format: functional, tissue-based, Prostate gland
# test context: read-out: pA2 (converted)
So I've got a bunch of compounds here, and I need their Kb values.
Just the number in nM, nothing appended.

Need Kb of COc1cccc(OC)c1OCCNC[C@H]1COc2c(OC)cccc2O1.Cl , thanks.
39.8

Need Kb of COc1cccc(OC)c1OCCNC[C@H]1COc2cccc(Cl)c2O1.Cl , thanks.
0.912

Need Kb of COc1cccc(OC)c1OCCNC[C@H]1COc2cccc(F)c2O1.Cl , thanks.
1.2

Need Kb of COc1cccc(OC)c1OCCNC[C@H]1COc2cccc(O)c2O1.Cl , thanks.
50.1

Need Kb of COc1cccc(OC)c1OCCNC[C@H]1COc2cccc(OC)c2O1.Cl , thanks.
2.82

###

assay endpoint: Ki
Your reply should be a number followed by the unit it is expressed in.

Param readout = Ki; param system = UniProtKB P35368; param query = COc1cccc(OC)c1OCCNC[C@H]1COc2cccc(O)c2O1.Cl ; response: value
Sequence (P35368 whole entry): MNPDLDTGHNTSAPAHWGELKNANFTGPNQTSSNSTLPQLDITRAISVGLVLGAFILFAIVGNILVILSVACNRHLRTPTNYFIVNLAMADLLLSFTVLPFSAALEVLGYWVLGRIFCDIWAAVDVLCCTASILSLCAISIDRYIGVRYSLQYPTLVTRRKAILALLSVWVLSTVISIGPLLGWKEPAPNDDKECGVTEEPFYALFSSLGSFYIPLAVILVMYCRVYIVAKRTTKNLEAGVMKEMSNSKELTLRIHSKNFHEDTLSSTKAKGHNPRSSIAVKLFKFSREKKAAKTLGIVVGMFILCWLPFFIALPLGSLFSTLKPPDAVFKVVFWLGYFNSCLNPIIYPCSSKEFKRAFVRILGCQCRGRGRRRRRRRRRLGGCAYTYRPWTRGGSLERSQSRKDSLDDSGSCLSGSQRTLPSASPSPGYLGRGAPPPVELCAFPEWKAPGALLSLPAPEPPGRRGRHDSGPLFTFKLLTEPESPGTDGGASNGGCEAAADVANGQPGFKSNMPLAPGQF
30.9 nM

Param readout = Ki; param system = UniProtKB P35368; param query = COc1cccc(OC)c1OCCNC[C@H]1COc2cccc(F)c2O1.Cl ; response: value
2.4 nM

Param readout = Ki; param system = UniProtKB P35368; param query = COc1cccc(OC)c1OCCNC[C@@H]1COc2cccc(OC)c2O1 ; response: value
79.4 nM

Param readout = Ki; param system = UniProtKB P35368; param query = COc1cccc(OC)c1OCCNC[C@@H]1COc2c(OC)cccc2O1 ; response: value
646 nM

Param readout = Ki; param system = UniProtKB P35368; param query = COc1cccc(OC)c1OCCNC[C@H]1COc2c(OC)cccc2O1.Cl ; response: value
447 nM

Param readout = Ki; param system = UniProtKB P35368; param query = COc1cccc(OC)c1OCCNC[C@@H]1COc2cccc(O)c2O1 ; response: value
398 nM

###

assay endpoint: Ki (nM)
Just the number in nM, nothing appended.

Param readout = Ki; param system = Alpha-1A adrenergic receptor (Homo sapiens, UniProt P35348); param query = COc1cccc(OC)c1OCCNC[C@H]1COc2c(OC)cccc2O1.Cl ; response: value
Sequence (P35348 whole entry): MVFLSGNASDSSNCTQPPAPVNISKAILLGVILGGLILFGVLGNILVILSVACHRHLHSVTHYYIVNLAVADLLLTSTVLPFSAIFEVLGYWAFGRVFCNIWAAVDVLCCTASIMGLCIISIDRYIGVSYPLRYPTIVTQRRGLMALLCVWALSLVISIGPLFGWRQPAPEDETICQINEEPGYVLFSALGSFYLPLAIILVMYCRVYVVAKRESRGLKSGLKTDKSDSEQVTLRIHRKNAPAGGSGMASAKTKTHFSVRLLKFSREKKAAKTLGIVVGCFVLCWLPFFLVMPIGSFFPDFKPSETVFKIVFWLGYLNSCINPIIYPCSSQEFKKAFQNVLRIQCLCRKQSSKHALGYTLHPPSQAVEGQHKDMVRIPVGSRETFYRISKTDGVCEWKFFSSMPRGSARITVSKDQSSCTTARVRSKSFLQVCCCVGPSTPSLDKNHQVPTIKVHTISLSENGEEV
24

Param readout = Ki; param system = Alpha-1A adrenergic receptor (Homo sapiens, UniProt P35348); param query = COc1cccc(OC)c1OCCNC[C@@H]1COc2cccc(OC)c2O1 ; response: value
16.6

Param readout = Ki; param system = Alpha-1A adrenergic receptor (Homo sapiens, UniProt P35348); param query = COc1cccc(OC)c1OCCNC[C@@H]1COc2cccc(F)c2O1 ; response: value
18.2

###

So I've got a bunch of molecules here, and I need their Kb values.
# assayed target: Alpha-1A adrenergic receptor (Rattus norvegicus)
# Sequence (P43140 whole entry): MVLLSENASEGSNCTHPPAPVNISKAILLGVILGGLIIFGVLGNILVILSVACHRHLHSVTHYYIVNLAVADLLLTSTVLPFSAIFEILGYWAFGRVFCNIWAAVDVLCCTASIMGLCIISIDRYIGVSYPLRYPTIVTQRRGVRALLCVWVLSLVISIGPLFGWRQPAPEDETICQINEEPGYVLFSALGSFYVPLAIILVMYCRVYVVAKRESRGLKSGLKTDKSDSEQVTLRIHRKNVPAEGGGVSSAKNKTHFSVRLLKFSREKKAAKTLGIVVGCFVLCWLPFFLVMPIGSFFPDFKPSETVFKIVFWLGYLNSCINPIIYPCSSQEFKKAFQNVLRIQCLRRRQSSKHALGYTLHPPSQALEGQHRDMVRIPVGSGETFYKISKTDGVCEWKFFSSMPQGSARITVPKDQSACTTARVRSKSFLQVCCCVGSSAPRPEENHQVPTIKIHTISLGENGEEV
# procedure summary: Antagonist activity at alpha1A adrenoceptor in Sprague-Dawley rat prostatic vas deferens assessed as inhibition of noradrenaline-induced contractions after 30 mins
# Format: functional, tissue-based
# test context: read-out: pA2 (converted)
Just the number in nM, nothing appended.

Need Kb of COc1cccc(OC)c1OCCNC[C@H]1COc2c(OC)cccc2O1.Cl , thanks.
53.7

Need Kb of COc1cccc(OC)c1OCCNC[C@H]1COc2cccc(Cl)c2O1.Cl , thanks.
0.275

Need Kb of COc1cccc(OC)c1OCCNC[C@H]1COc2cccc(O)c2O1.Cl , thanks.
166

Need Kb of COc1cccc(OC)c1OCCNC[C@H]1COc2cccc(F)c2O1.Cl , thanks.
28.8

Need Kb of COc1cccc(OC)c1OCCNC[C@H]1COc2cccc(OC)c2O1.Cl , thanks.
1.7
